Test system: control sera (pooled serum of ten healthy LUMC hospital workers; commercial negative donor pooled serum from the Dutch bloodbank)
Type: binding, human
measuredMetric: Control Serum Blood-Bank Looped peptides
Answers are plain numbers.

Record excerpt, results attached:
KTDEAQPLPQRQKKQ    0.4
IAQFAPSASAFFGMS    0.8
LTYHGAIKLDDKDPQ    0.5
DEAQPLPQRQKKQPT    0.3
FSRQLQNSMSGASAD    0.4

Working through the 7 sequences below one at a time, give Control Serum Blood-Bank Looped peptides for each.
1. FGMSRIGMEVTPSGT
2. FAPSASAFFGMSRIG
3. EVTPSGTWLTYHGAI
4. ASAFFGMSRIGMEVT
5. GAIKLDDKDPQFKDN
6. PAADMDDFSRQLQNS
7. MSRIGMEVTPSGTWL

## Output
0.5
0.4
0.8
0.5
0.6
0.3
0.7

For every item below, please supply its Control Serum Blood-Bank Looped peptides.
1. SRIGMEVTPSGTWLT
2. ILLNKHIDAYKTFPP
3. TFPPTEPKKDKKKKT
4. GTDYKHWPQIAQFAP
5. HGAIKLDDKDPQFKD
6. QRQKKQPTVTLLPAA

## Output
1: 0.6; 2: 0.6; 3: 0.5; 4: 0.8; 5: 0.4; 6: 1.1
